Recorded values, source patent US8716480B2.

Target: human mGluR2 receptor (Homo sapiens)
Construct: expressed in transfected cells; host or cells: CHO cells (membranes)
Assay: [35S]GTPγS binding assay (PAM)
Type: biochemical
Conditions: in presence of glutamate at predetermined EC20; membranes from CHO cells transfected with human mGluR2
Protocol: [^35S]GTPγS binding assay The [^35S]GTPγS binding assay is a functional membrane-based assay used to study G-protein coupled receptor (GPCR) function whereby incorporation of a non-hydrolysable form of GTP, [^35S]GTPγS (guanosine 5′-triphosphate, labelled with […] ^35S), is measured. CHO-cells were cultured to pre-confluence and stimulated with 5 mM butyrate for 24 h, prior to washing in PBS, and then collected by scraping in homogenisation buffer (50 mM Tris-HCl buffer, pH 7.4, 4° C.). […]
parameter: GTPγS -hR2 PAM pEC50

Clc1c(-c2ccc(N3CCOCC3)nc2)ccn2c(CC3CC3)nnc12; 5.61
FC(F)(F)c1c(-c2ccc(Oc3ccnc(C4CC4)c3)c(Cl)c2)ccn2c(CC3CC3)nnc12; 8.38
O[C@H]1CC[C@@H](Oc2ccc(-c3ccn4c(CC(F)(F)F)nnc4c3Cl)cc2Cl)CC1; 7.01
O[C@H]1CC[C@H](Oc2ccc(-c3ccn4c(CC(F)(F)F)nnc4c3Cl)cc2Cl)CC1; 6.80
Clc1cc(-c2ccn3c(CC4CC4)nnc3c2Cl)ccc1OC1CCOCC1; 6.53
FC(F)(F)C1CCN(Cc2ccc(-c3ccn4c(CC5CC5)nnc4c3Cl)cc2)CC1; 6.13
CC(C)Nc1ccc(-c2ccn3c(CC4CC4)nnc3c2Cl)cn1; 6.51
Fc1cnccc1Oc1ccc(-c2ccn3c(CC4CC4)nnc3c2C(F)(F)F)cc1; 7.03
O[C@]1(C2CC2)CC[C@H](Nc2ccc(-c3ccn4c(CC5CC5)nnc4c3C(F)(F)F)cc2Cl)CC1; 8.79
COc1ccc(CNc2ccc(-c3ccn4c(CC5CC5)nnc4c3C(F)(F)F)cc2)cn1; 7.90
O[C@H]1CC[C@H](Nc2ccc(-c3ccn4c(CC(F)(F)F)nnc4c3Cl)cc2Cl)CC1; 7.40
Cc1cc(Oc2ccc(-c3ccn4c(CC(F)(F)F)nnc4c3Cl)cc2Cl)ccn1; 6.78
Clc1c(-c2ccc(N3CCCCC3)nc2)ccn2c(CC3CC3)nnc12; 6.53
Cc1ccc(Oc2ccc(-c3ccn4c(CC(F)(F)F)nnc4c3Cl)cc2Cl)c(C)n1; 8.00
CC(C)Nc1ccc(-c2ccn3c(CC4CC4)nnc3c2C(F)(F)F)cc1Cl; 7.77
CCOCc1nnc2c(Cl)c(-c3ccc(Oc4ccc(C)nc4C)c(F)c3)ccn12; 7.13
FC(F)(F)Cc1nnc2c(Cl)c(-c3ccc(NC4CCOCC4)c(Cl)c3)ccn12; 6.66

---

Target: human mGluR2 receptor (Homo sapiens, UniProt Q14416)
Construct: expressed in transfected cells; host or cells: CHO cells (membranes)
Sequence (Q14416 19-872): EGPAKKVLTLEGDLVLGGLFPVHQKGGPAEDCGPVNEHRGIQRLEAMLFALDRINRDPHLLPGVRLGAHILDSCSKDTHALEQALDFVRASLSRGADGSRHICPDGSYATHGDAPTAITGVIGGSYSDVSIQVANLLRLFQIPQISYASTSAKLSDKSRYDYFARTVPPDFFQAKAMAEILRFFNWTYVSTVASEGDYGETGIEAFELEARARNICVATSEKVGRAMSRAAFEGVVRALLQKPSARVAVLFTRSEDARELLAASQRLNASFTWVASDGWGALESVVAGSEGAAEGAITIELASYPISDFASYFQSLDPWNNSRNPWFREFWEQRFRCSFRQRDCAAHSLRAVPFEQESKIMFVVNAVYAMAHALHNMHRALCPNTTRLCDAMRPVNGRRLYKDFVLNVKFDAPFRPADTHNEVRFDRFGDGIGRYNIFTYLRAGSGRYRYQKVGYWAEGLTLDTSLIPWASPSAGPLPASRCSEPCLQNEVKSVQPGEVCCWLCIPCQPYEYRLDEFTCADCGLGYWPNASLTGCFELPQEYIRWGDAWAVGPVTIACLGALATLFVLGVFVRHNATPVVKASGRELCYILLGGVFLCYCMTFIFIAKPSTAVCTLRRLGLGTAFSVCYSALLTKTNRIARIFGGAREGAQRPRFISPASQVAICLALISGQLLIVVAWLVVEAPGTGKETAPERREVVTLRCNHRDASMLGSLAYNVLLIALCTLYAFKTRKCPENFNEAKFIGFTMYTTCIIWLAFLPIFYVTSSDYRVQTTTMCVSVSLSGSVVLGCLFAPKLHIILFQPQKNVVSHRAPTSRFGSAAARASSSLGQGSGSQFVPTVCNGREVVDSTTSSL
Test: [35S]GTPγS binding assay (PAM)
Assay type: biochemical
Conditions: in presence of glutamate at predetermined EC20; membranes from CHO cells transfected with human mGluR2
parameter: GTPγS -hR2 PAM pEC50

Field: example entries. Status: answers known.
Cc1cc(Oc2ccc(-c3ccn4c(CC5CC5)nnc4c3Cl)cc2F)ccn1 [Co. No. 15]; 6.65
O[C@H]1CC[C@H](Nc2ccc(-c3ccn4c(CC5CC5)nnc4c3Cl)cc2Cl)CC1 [Co. No. 21]; 7.11
Cc1ccc(Oc2ccc(-c3ccn4c(CC5CC5)nnc4c3C)cc2Cl)c(C)n1 [Co. No. 61]; 7.70

1. Cc1ccc(Oc2ccc(-c3ccn4c(CC5CC5)nnc4c3C(F)(F)F)cc2Cl)c(C)n1 [Co. No. 53]
2. Clc1c(-c2ccccc2)ccn2c(CN3CCOc4ccccc4C3)nnc12 [Co. No. 28]
-- ask Please tell me which of the two, 1 or 2 , has the higher reported GTPγS -hR2 PAM pEC50 value. Your answer should be the label attached to the chosen record.
-- reply 1

---

parameter: melting point (°C)

Field: example entries. Status: answers known.
FC(F)(F)c1c(-c2ccc(NC3CCOCC3)c(Cl)c2)ccn2c(CC3CC3)nnc12 [Co. No. 10]; 198.4
O[C@H]1CC[C@H](Nc2ccc(-c3ccn4c(CC5CC5)nnc4c3Cl)cc2Cl)CC1 [Co. No. 12]; 273.7

A. CC(C)Nc1ccc(-c2ccn3c(CC4CC4)nnc3c2C(F)(F)F)cc1F [Co. No. 49]
B. Cc1cc(Oc2ccc(-c3ccn4c(CC(F)(F)F)nnc4c3Cl)cc2F)ccn1 [Co. No. 1]
-- ask Please tell me which of the two, A or B , has the higher reported melting point value. Your answer should be the label attached to the chosen record.
-- reply A
(A: 196.9 °C, B: 130.1 °C)

a. CCOCc1nnc2c(C)c(-c3ccc(Oc4ccc(C)nc4C)c(F)c3)ccn12 [Co. No. 42]
b. Fc1cc(-c2ccn3c(CC4CC4)nnc3c2C(F)(F)F)ccc1Oc1ccnc(C2CC2)c1 [Co. No. 46]
-- ask Please tell me which of the two, a or b , has the higher reported melting point value. Your answer should be the label attached to the chosen record.
-- reply b
(b: 211.1 °C, a: 144 °C)

---

Molecular target: human mGluR2 receptor (Homo sapiens, UniProt Q14416)
Construct: expressed in transfected cells; host or cells: CHO cells (membranes)
Experiment: [35S]GTPγS binding assay (PAM)
Type: biochemical
Conditions: in presence of glutamate at predetermined EC20; membranes from CHO cells transfected with human mGluR2; read-out: GTPγS -hR2 PAM pEC50 (converted)
parameter: EC50 (nM)

Field: example entries. Status: answers known.
CCOCc1nnc2c(C(F)(F)F)c(-c3ccc(Oc4ccnc(C)c4)c(F)c3)ccn12 [Co. No. 36]; 219
Cc1cc(Oc2ccc(-c3ccn4c(CC(F)(F)F)nnc4c3Cl)cc2F)ccn1 [Co. No. 1]; 209
Clc1c(-c2ccccc2)ccn2c(CN3CCC(c4ccccc4)CC3)nnc12 [Co. No. 5]; 191
CC(C)Nc1ccc(-c2ccn3c(CC4CC4)nnc3c2C(F)(F)F)cc1F [Co. No. 49]; 60.3

1. Clc1cc(-c2ccn3c(CC4CC4)nnc3c2Cl)ccc1NC1CC1 [Co. No. 6]
2. FC(F)(F)Cc1nnc2c(Cl)c(-c3ccc(OC4CCOCC4)c(Cl)c3)ccn12 [Co. No. 7]
-- ask Which record shows the lower EC50: the first, 1 , or the second, 2 ? Your answer should be the label attached to the chosen record.
-- reply 1
(1: 36.3 nM, 2: 174 nM)

a. Cc1ccc(Oc2ccc(-c3ccn4c(CC(F)(F)F)nnc4c3Cl)cc2F)c(C)n1 [Co. No. 3]
b. CCc1cc(Oc2ccc(-c3ccn4c(CC5CC5)nnc4c3Cl)cc2F)ccn1 [Co. No. 48]
-- ask Please tell me which of the two, a or b , has the higher reported EC50 value. Your answer should be the label attached to the chosen record.
-- reply b
(b: 145 nM, a: 45.7 nM)

1. Cc1ccc(Oc2ccc(-c3ccn4c(CC5CC5)nnc4c3Cl)cc2F)c(C)n1 [Co. No. 14]
2. OC1CCC(Nc2ccc(-c3ccn4c(CC5CC5)nnc4c3Cl)cc2Cl)CC1 (single isomer, unassigned) [Co. No. 13-a]
3. CCOCc1nnc2c(C)c(-c3ccc(Oc4ccc(C)nc4C)c(F)c3)ccn12 [Co. No. 42]
4. Cc1ccc(Oc2ccc(-c3ccn4c(CC5CC5)nnc4c3C(F)(F)F)cc2F)c(C)n1 [Co. No. 4]
-- ask Rank order required: EC50, descending. List the labels according to the requested ordering.
-- reply 3, 1, 2, 4

I. FC(F)(F)c1c(-c2ccc(NC3CCOCC3)c(Cl)c2)ccn2c(CC3CC3)nnc12 [Co. No. 10]
II. FC(F)(F)c1c(-c2ccc(OC3CCOCC3)c(Cl)c2)ccn2c(CC3CC3)nnc12 [Co. No. 9]
-- ask Which record shows the lower EC50: the first, I , or the second, II ? Your answer should be the label attached to the chosen record.
-- reply I

---

Each record here notes measured ED50.
Test system: male NMRI mice
Experiment: Phencyclidine (PCP)-induced hyperlocomotion in mice
Format: in vivo
Conditions: Mus musculus; mice; PCP 5 mg/kg s.c.; criterion total distance <5500 counts; not marked as oral; read-out: ED50 PCP-Inh.
Output spec: scalar in mg/kg, unitless text.

Field: example entries. Status: answers known.
Cc1ccc(Oc2ccc(-c3ccn4c(CC5CC5)nnc4c3C(F)(F)F)cc2F)c(C)n1 [Co. No. 4]; 15.2
Cc1cc(Oc2ccc(-c3ccn4c(CC5CC5)nnc4c3C(F)(F)F)cc2F)ccn1 [Co. No. 2]; 12.3
Cc1ccc(Oc2ccc(-c3ccn4c(CC(F)(F)F)nnc4c3Cl)cc2F)c(C)n1 [Co. No. 3]; 16.2
FC(F)(F)Cc1nnc2c(Cl)c(-c3ccc(OC4CCOCC4)c(Cl)c3)ccn12 [Co. No. 7]; 10
Cc1cc(Oc2ccc(-c3ccn4c(CC(F)(F)F)nnc4c3Cl)cc2F)ccn1 [Co. No. 1]; 18.7

Next, consider the following molecule.
-- ask Item: Cc1ccc(Oc2ccc(-c3ccn4c(CC5CC5)nnc4c3Cl)cc2F)c(C)n1 [Co. No. 14] Test system: male NMRI mice Read-out: ED50 Value: ?
-- reply 18
